Each recorded value in this set is attributed to ChEMBL document CHEMBL5728748.

assay remarks: TarO Biochemical Enzymatic Assay: The TarO biochemical enzymatic assay is a liquid chromatography-mass spectroscopy (LC-MS) based end point assay that measures C55-P-P-GlcNAc (LIPID III) production. The TarO biochemical enzymatic assay was performed in a 384-well microtiter plate (Labcyte) with a reaction volume of 20 μl. The reaction mix contained 0.1 μgs/μl of TarO membrane preparation derived from MRSA COL (lysostaphin/lysozyme treated, centrifuged at 40K rpm, and re-suspended in 50 mM Tris pH 7.5, 10 mM MgCl2), 1500 μM UDP-GlcNAc, x 75 μM C55-P substrates in 83 mM Tris pH 8.0, 6.7 mM MgCl2, 6 mM CHAPS, and 8.3% DMSO buffer. The enzyme reactions were quenched by extraction in 40 μl of 1-pentanol containing 0.04 μM […] C55-PP-GlcNAc, which was used as an internal standard. A 10 μl volume of the quenched reaction mixture (pH≈3) from each well was injected onto a reversed-phase column (C4, 5 m, 2.1×50 mm, Thermo Scientific Biobacis-4) and eluted using a NH4Ac/H2O/MeOH gradient (solvent A: 10 mM NH4Ac in water, pH 5.6; solvent B: NH4Ac (1 M)-Isopropanol (1:90, v/v, pH 5.6). The HPLC conditions were as follows: 15% solvent B for 15 seconds followed by a gradient to 90% solvent B in 90 seconds; then solvent B was kept at 95% for 10 seconds followed by a gradient to 8% solvent B in 0.1 minute. The column was then equilibrated at 15% B for 1 minute before the next injection. The flow rate was kept constant at 600 μl/minute. Mass spectrometric detection was carried out in the negative-ion mode using selected reaction monitoring (SRM). Typical mass spectrometric conditions were as follows: heated capillary temperature, 210° C.; spray voltage, 2500 V; desolvation gas (N2), 40 l/h; auxiliary gas (N2), 35 l/h. Selected ion current (SIC) chromatograms of C55-PP-GlcNAc and internal standard 15C C55-PP-GlcNAc were plotted and integrated using LCQuan incorporated in Xcalibur software (ThermoFinnigan). The linearity of C55-PP-GlcNAc concentration versus mass spectrometric signal (AC55-PP-GlcNAc/A15C-C55-PP-GlcNAc) was determined with purified C55-PP-GlcNAc. The IC50 values were calculated using the nonlinear regression analysis (sigmoidal dose response fit allowing for a variable slope) of percent inhibition data with minimum and maximum values set to 0 and 100 percent.
Field 'label' (enum: label 1 / label 0). Set to label 1 when IC50 is strictly under 200 nM; else label 0.

> print(dat)
                                 test.smiles  discrete.label
 1  Cc1nc(C)c(CNC(=O)N2C(=O)O[C@H](c3cc(F)cc(C(F)(F)F)c3)[C@@H]2C)s1         label 0
 2  C[C@H]1[C@@H](c2cc(F)cc(C(F)(F)F)c2)OC(=O)N1C(=O)NCc1cccc(N(C)C)c1         label 1
 3  C[C@H]1[C@@H](c2cc(C(F)(F)F)cc(C(F)(F)F)c2)OC(=O)N1C(=O)NCc1cccc2nccnc12         label 1
 4  C[C@H]1[C@@H](c2cc(F)cc(C(F)(F)F)c2)OC(=O)N1C(=O)NCc1ccccc1CN(C)C         label 0
 5  C=CCOc1cc([C@H]2OC(=O)N(C(=O)NCc3cncc4ccccc34)[C@H]2C)nc(C(F)(F)F)c1         label 1
 6  C[C@H]1[C@@H](c2cc(F)cc(C(F)(F)F)c2)OC(=O)N1C(=O)NCc1cccc2cn[nH]c12         label 0
 7  C[C@H]1[C@@H](c2cc(F)cc(C(F)(F)F)c2)OC(=O)N1C(=O)NCc1cccc2nccnc12         label 1
 8  Cc1cc(C)cc([C@H]2OC(=O)N(C(=O)CCc3cncc4ccccc34)[C@H]2C)c1         label 0
 9  CC[C@H]1[C@@H](c2cc(C(F)(F)F)cc(C(F)(F)F)c2)OC(=O)N1C(=O)CCc1cncc2ccccc12         label 1
10  C[C@@H]1NN(C(=O)NCc2cncc3ccccc23)C(=O)O[C@@H]1c1cc(F)cc(C(F)(F)F)c1         label 0
11  C[C@H]1[C@@H](c2cc(F)cc(C(F)(F)F)c2)OC(=O)N1C(=O)NCc1cccc2ncccc12         label 0
12  COc1cccnc1CNC(=O)N1C(=O)O[C@H](c2cc(C(F)(F)F)cc(C(F)(F)F)c2)[C@@H]1C         label 0
13  COc1cccc([C@H]2OC(=O)N(C(=O)CCc3cncc4ccccc34)[C@H]2C)c1         label 0
14  C[C@H]1[C@@H](c2cc(F)cc(C(F)(F)F)c2)OC(=O)N1C(=O)NCc1ccccc1-n1cccc1         label 0
15  O=C(NCc1cncc2ccccc12)N1C(=O)O[C@H](c2cc(F)cc(C(F)(F)F)c2)[C@@H]1CO         label 0
16  COc1cc([C@H]2OC(=O)N(C(=O)NCc3cncc4cccnc34)C[C@H]2C)cc(C(F)(F)F)c1         label 0
17  C[C@H]1[C@@H](c2cc(Br)cc(C(F)(F)F)c2)OC(=O)N1C(=O)CCc1cncc2ccccc12         label 0
